# Tested on: Mealy Bug
# test-settings: mealy bug on cotton plants, green house; dose 1 ml/gm/lit. spray; 48 hrs after application
# % Mortality at 48 Hrs. annotations
Express the reported value numerically, then name its unit.

// below: answered molecules
molecule	readout-name	recorded-value
CC1=CCC2CC1C2(C)C (stereo not drawn) [Alpha-pinene]	% Mortality at 48 Hrs.	60.00%
CC12CCC(CC1)C(C)(C)O2 [1,8 cineole]	% Mortality at 48 Hrs.	45.00%
CC12CCC(CC1=O)C2(C)C (stereo not drawn) [Camphor]	% Mortality at 48 Hrs.	67.50%
C/C=C\c1cc(OC)c(OC)cc1OC [β-Asarone]	% Mortality at 48 Hrs.	35.00%
Cc1ccc(C(C)C)cc1O [Carvacrol]	% Mortality at 48 Hrs.	65.00%
CCCCCCCCCCCCCCCC(=O)O [Palmitic acid]	% Mortality at 48 Hrs.	55.00%
C=C1C2CCC(C2)C1(C)C (stereo not drawn) [Camphene, camphene]	% Mortality at 48 Hrs.	52.50%
CC1=CC(=O)C(C(C)C)=CC1=O [Thymoquinone]	% Mortality at 48 Hrs.	50.00%

Exercise: Give the measured % Mortality at 48 Hrs. for CCCCC[C@H](O)CC(=O)CCc1ccc(O)c(OC)c1 [Gingerol]
Key: 37.50%

Exercise: Could you please provide reported % Mortality at 48 Hrs. for Cc1ccc(C(C)C)c(O)c1 [Thymol] ? Thanks!
Key: 55.00%

====

# System: Alternaria alternata
# assay-summary: In vitro poisoned food technique against fungus (Ex. 20)
# Format: cell-based
# test-settings: […]
readout-name: inhibition of growth at 1 mL or g/L (%)
Write the number in % without appending the unit.

Some solved entries appear below for comparison.
molecule	inhibition of growth at 1 mL or g/L [%]
COc1cc(CNC(=O)CCCC/C=C/C(C)C)ccc1O	42.6
CC(C)=CCCC(C)=CC=O	48.3

Exercise: // Input: `CCCCC[C@H](O)CC(=O)CCc1ccc(O)c(OC)c1` . Output its inhibition of growth at 1 mL or g/L only.
Key: 51.7

Exercise: Give reported inhibition of growth at 1 mL or g/L value for `C=C(C)[C@H]1CC=C(C)CC1`
Key: 46.6

Exercise: Indicate the recorded inhibition of growth at 1 mL or g/L value for this molecule: C=C1C2CCC(C2)C1(C)C (centres unmarked)
Key: 18.8

Exercise: Specify inhibition of growth at 1 mL or g/L for `C/C=C\c1cc(OC)c(OC)cc1OC` and stop.
Key: 54

Exercise: Read off the recorded inhibition of growth at 1 mL or g/L for `CCCCCCCCCCCCCCCC(=O)O`
Key: 34.1

Exercise: Entry `Cc1ccc(C(C)C)cc1` needs its inhibition of growth at 1 mL or g/L filled in; supply it.
Key: 34.1

====

# Test system: Thrips
# test-settings: thrips on cotton plants, greenhouse; dose 1 ml/gm/lit. spray; 48 hrs after application
readout-name: % Mortality at 48 Hrs. (%)
Hi! Could you send only the number? It should be in %, unit omitted.

A selection of reference data follows.
compound	target-system	% Mortality at 48 Hrs., %
CC1CCC(C(C)C)C(O)C1 (centres unmarked)	Thrips	72.50
O=C(/C=C/C=C/c1ccc2c(c1)OCO2)N1CCCCC1	Thrips	32.50

Exercise: Look up and report measured % Mortality at 48 Hrs. for this entry: `CCCCCCCCCC(C)=O`
Key: 47.50

Exercise: Give me measured % Mortality at 48 Hrs., please, for this compound: `Cc1ccc(C(C)C)c(O)c1`
Key: 35.00

Hey, just so you know, these numbers are from patent US20250351832A1.
